Source listed as paper PMC6270991.

- TESTED_ON: DYRK1A (Rattus norvegicus, UniProt Q63470)
- ASSAY_DETAILS: DYRK1A in vitro kinase assay (33P-ATP, Woodtide substrate)
- Type: biochemical
- ASSAY_SETUP: 15 μM ATP, 30 min at 30 °C, triplicate; <50% inhibition at 10 µM reported as >10
# IC50 values compiled below
PROPERTY_MEASURED: IC50

1. CCN(CC)CCNC(=N)c1nc2ccc3ncnc(Nc4ccc5c(c4)OCO5)c3c2s1
6.5 µM
2. N=C(NCCN1CCCC1)c1nc2ccc3ncnc(Nc4ccc(F)c(Cl)c4)c3c2s1 [Compound 10c]
> 10 µM
3. N=C(NCCN1CCCCC1)c1nc2ccc3ncnc(Nc4ccc(Br)cc4F)c3c2s1
> 10 µM
4. CCN(CC)CCNC(=N)c1nc2ccc3ncnc(Nc4ccc(F)c(Cl)c4)c3c2s1 [Compound 10e]
> 10 µM
5. N=C(NCCN1CCOCC1)c1nc2ccc3ncnc(Nc4ccc(F)c(Cl)c4)c3c2s1 [Compound 10a]
> 10 µM
6. N=C(NCCN1CCCCC1)c1nc2ccc3ncnc(Nc4ccc(F)c(Cl)c4)c3c2s1 [Compound 10b]
> 10 µM

---

# IC50 values compiled below
- TESTED_ON: CDK5/p25 (Homo sapiens, UniProt Q00535)
- Construct: made in house
- Sequence (Q00535 whole entry): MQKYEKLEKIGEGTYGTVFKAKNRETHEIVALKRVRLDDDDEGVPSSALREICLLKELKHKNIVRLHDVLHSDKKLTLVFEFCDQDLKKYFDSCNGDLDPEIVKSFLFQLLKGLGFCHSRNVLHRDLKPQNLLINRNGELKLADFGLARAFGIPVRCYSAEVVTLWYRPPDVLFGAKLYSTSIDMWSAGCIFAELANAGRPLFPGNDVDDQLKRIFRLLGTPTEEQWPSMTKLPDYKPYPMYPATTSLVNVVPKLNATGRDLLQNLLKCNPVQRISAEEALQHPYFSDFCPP
- Sequence (Q15078 99-307 partner limits assumed): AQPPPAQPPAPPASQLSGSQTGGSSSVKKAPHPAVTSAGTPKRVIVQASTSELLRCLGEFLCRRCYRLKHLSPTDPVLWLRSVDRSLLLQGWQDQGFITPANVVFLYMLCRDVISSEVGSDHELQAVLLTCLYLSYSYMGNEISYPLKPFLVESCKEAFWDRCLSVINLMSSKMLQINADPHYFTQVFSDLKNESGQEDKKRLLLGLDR
- ASSAY_DETAILS: CDK5/p25 in vitro kinase assay (33P-ATP, histone H1)
- Assay type: biochemical
- ASSAY_SETUP: 15 μM ATP, 30 min at 30 °C, triplicate; <50% inhibition at 10 µM reported as >10; read-out: CDK5 IC50
PROPERTY_MEASURED: IC50

1) N=C(NCCN1CCOCC1)c1nc2ccc3ncnc(Nc4ccc(Br)cc4F)c3c2s1
> 10 µM
2) CN(C)CCNC(=N)c1nc2ccc3ncnc(Nc4ccc5c(c4)OCO5)c3c2s1
> 10 µM
3) CCN(CC)CCNC(=N)c1nc2ccc3ncnc(Nc4ccc(F)c(Cl)c4)c3c2s1 [Compound 10e]
> 10 µM
4) CCN(CC)CCNC(=N)c1nc2ccc3ncnc(Nc4ccc5c(c4)OCO5)c3c2s1
> 10 µM

---

# IC50 values compiled below
- TESTED_ON: GSK-3α/β
- ASSAY_DETAILS: GSK-3α/β in vitro kinase assay (33P-ATP, GS-1 peptide)
- ASSAY_SETUP: 15 μM ATP, 30 min at 30 °C, triplicate; <50% inhibition at 10 µM reported as >10; read-out: GSK3 IC50
PROPERTY_MEASURED: IC50 (nM)

1. CCN(CC)CCNC(=N)c1nc2ccc3ncnc(Nc4ccc5c(c4)OCO5)c3c2s1 [Compound 8e]
800
2. N=C(NCc1ccccc1)c1nc2ccc3ncnc(Nc4ccc5c(c4)OCO5)c3c2s1 [Compound 8f]
2000
3. CCN(CC)CCNC(=N)c1nc2ccc3ncnc(Nc4ccc(F)c(Cl)c4)c3c2s1 [Compound 10e]
7000
4. COc1ccc(Nc2ncnc3ccc4nc(C(=N)NCc5ccccc5)sc4c23)cc1 [Compound 7f]
2000
5. COC(=N)c1nc2ccc3ncnc(Nc4ccc5c(c4)OCO5)c3c2s1 [Compound 8i]
660
6. COc1ccc(Nc2ncnc3ccc4nc(C(=N)N(C)C)sc4c23)cc1 [Compound 7g]
1100
7. N=C(NCCN1CCOCC1)c1nc2ccc3ncnc(Nc4ccc(F)c(Cl)c4)c3c2s1 [Compound 10a]
3500

---

# IC50 values compiled below
- TESTED_ON: UniProt:Q63470
- ASSAY_DETAILS: DYRK1A in vitro kinase assay (33P-ATP, Woodtide substrate)
- Type: biochemical
- ASSAY_SETUP: 15 μM ATP, 30 min at 30 °C, triplicate; <50% inhibition at 10 µM reported as >10
PROPERTY_MEASURED: IC50 (nM)

1. N=C(NCCN1CCCCC1)c1nc2ccc3ncnc(Nc4ccc5c(c4)OCO5)c3c2s1 [Compound 8b]
2000
2. CN(C)C(=N)c1nc2ccc3ncnc(Nc4ccc(Br)cc4F)c3c2s1 [Compound 9g]
270

---

- TESTED_ON: GSK-3α/β
- ASSAY_DETAILS: GSK-3α/β in vitro kinase assay (33P-ATP, GS-1 peptide)
- ASSAY_SETUP: 15 μM ATP, 30 min at 30 °C, triplicate; <50% inhibition at 10 µM reported as >10; read-out: GSK3 IC50
pIC50: −log10 of the molar value.
# pIC50 values compiled below
PROPERTY_MEASURED: pIC50

1) COc1ccc(Nc2ncnc3ccc4nc(C(=N)NCCN5CCOCC5)sc4c23)cc1 [Compound 7a]
5.96
2) N=C(NCCN1CCCCC1)c1nc2ccc3ncnc(Nc4ccc(F)c(Cl)c4)c3c2s1 [Compound 10b]
5.85
3) N=C(NCCN1CCOCC1)c1nc2ccc3ncnc(Nc4ccc5c(c4)OCO5)c3c2s1 [Compound 8a]
6.01
4) N=C(NCCN1CCOCC1)c1nc2ccc3ncnc(Nc4ccc(Br)cc4F)c3c2s1 [Compound 9a]
5.74
5) NC(=O)c1nc2ccc3ncnc(Nc4ccc(F)c(Cl)c4)c3c2s1 [Compound 10h]
6.18
6) COc1ccc(Nc2ncnc3ccc4nc(C(=N)NCCN5CCCC5)sc4c23)cc1 [Compound 7c]
5.70
7) N=C(NCCN1CCCC1)c1nc2ccc3ncnc(Nc4ccc5c(c4)OCO5)c3c2s1 [Compound 8c]
6.44
8) N=C(NCCN1CCCC1)c1nc2ccc3ncnc(Nc4ccc(F)c(Cl)c4)c3c2s1 [Compound 10c]
5.60
9) COC(=N)c1nc2ccc3ncnc(Nc4ccc(Br)cc4F)c3c2s1 [Compound 9i]
6.80
10) CCN(CC)CCNC(=N)c1nc2ccc3ncnc(Nc4ccc(OC)cc4)c3c2s1 [Compound 7e]
5.89
11) COc1ccc(Nc2ncnc3ccc4nc(C(N)=O)sc4c23)cc1 [Compound 7h]
6.52
12) N=C(NCCN1CCCCC1)c1nc2ccc3ncnc(Nc4ccc5c(c4)OCO5)c3c2s1 [Compound 8b]
5.96
13) NC(=O)c1nc2ccc3ncnc(Nc4ccc(Br)cc4F)c3c2s1 [Compound 9h]
6.89
14) N=C(NCCN1CCCCC1)c1nc2ccc3ncnc(Nc4ccc(Br)cc4F)c3c2s1 [Compound 9b]
6.28
15) CN(C)C(=N)c1nc2ccc3ncnc(Nc4ccc(Br)cc4F)c3c2s1 [Compound 9g]
6.22
16) CN(C)C(=N)c1nc2ccc3ncnc(Nc4ccc(F)c(Cl)c4)c3c2s1 [Compound 10g]
5.14
17) CCN(CC)CCNC(=N)c1nc2ccc3ncnc(Nc4ccc(Br)cc4F)c3c2s1 [Compound 9e]
5.68
18) N=C(NCCN1CCCC1)c1nc2ccc3ncnc(Nc4ccc(Br)cc4F)c3c2s1 [Compound 9c]
5.66
